This section presents compounds with their documented IC50 values.
molecular target: GSK3B (Homo sapiens); assay: In vitro enzymatic activity assay, GSK3β; assay type: biochemical; parameters: Full length human GSK3α or GSK3B expressed as N-terminal GST fusion proteins; GST (N); purchased Carna Biosciences (Japan); host or cells: baculovirus host; conditions: 1.0 mM ATP, 1.0 μM peptide substrate, 120 min, 25° C, read-out: Enzyme GSK3β (IC50)

{"Compound": "NCc1cncc(NC(=O)c2c(N)ncn(-c3c(Cl)cc(OC4CC4)cc3Cl)c2=O)c1 [Example 52]", "Measurement Target": "GSK3B (Homo sapiens)", "IC50 [nM]": 209}
{"Compound": "COc1cc(Cl)c(-n2cnc(N)c(C(=O)Nc3cncc([C@@H]4CCCN4)c3)c2=O)c(Cl)c1 [Example 73]", "Measurement Target": "GSK3B (Homo sapiens)", "IC50 [nM]": 318}
{"Compound": "CCC(N)c1cncc(NC(=O)c2c(N)ncn(-c3c(C)cc(COC)cc3C)c2=O)c1 (single isomer, unassigned) [Example 35]", "Measurement Target": "GSK3B (Homo sapiens)", "IC50 [nM]": 693}
{"Compound": "Cc1cc(C(F)(F)F)cc(C)c1-n1cnc(N)c(C(=O)Nc2cncc(C3CCC(C)N3)c2)c1=O (single isomer, unassigned) [Example 87]", "Measurement Target": "GSK3B (Homo sapiens)", "IC50 [nM]": 1130}
{"Compound": "CCOc1cc(Cl)c(-n2cnc(N)c(C(=O)Nc3cncc(CNCCO)c3)c2=O)c(Cl)c1 [Example 26]", "Measurement Target": "GSK3B (Homo sapiens)", "IC50 [nM]": 327}
{"Compound": "COCc1cc(Cl)c(-n2cnc(N)c(C(=O)Nc3cncc(C4(N)CCC4)c3)c2=O)c(Cl)c1 [Example 65]", "Measurement Target": "GSK3B (Homo sapiens)", "IC50 [nM]": 302}
{"Compound": "NCc1cncc(NC(=O)c2c(N)ncn(-c3c(Cl)cc(C(F)(F)F)cc3Cl)c2=O)c1 [Example 120]", "Measurement Target": "GSK3B (Homo sapiens)", "IC50 [nM]": 442}
{"Compound": "COCc1cc(C)c(-n2cnc(N)c(C(=O)Nc3cnnc(C(N)=O)c3)c2=O)c(C)c1 [Example 30]", "Measurement Target": "GSK3B (Homo sapiens)", "IC50 [nM]": 1950}
{"Compound": "[2H]C([2H])([2H])NC(C)c1cncc(NC(=O)c2c(N)ncn(-c3c(C)cc(C(F)(F)F)cc3Cl)c2=O)c1 (single isomer, unassigned) [Example 16]", "Measurement Target": "GSK3B (Homo sapiens)", "IC50 [nM]": 255}
{"Compound": "COCc1cc(C)c(-n2cnc(N)c(C(=O)Nc3cncc(C4CNC(=O)CN4)c3)c2=O)c(C)c1 (single isomer, unassigned) [Example 159]", "Measurement Target": "GSK3B (Homo sapiens)", "IC50 [nM]": 2080}
{"Compound": "Nc1ncn(-c2c(Cl)cc(C(F)(F)F)cc2Cl)c(=O)c1C(=O)Nc1cncc([C@@H]2CCCCN2)c1 [Example 119]", "Measurement Target": "GSK3B (Homo sapiens)", "IC50 [nM]": 414}
{"Compound": "COC[C@@H](N)c1cncc(NC(=O)c2c(N)ncn(-c3c(Cl)cc(C#N)cc3Cl)c2=O)c1 (single isomer, unassigned) [Example 44]", "Measurement Target": "GSK3B (Homo sapiens)", "IC50 [nM]": 382}
{"Compound": "CCC[C@@H](N)c1cncc(NC(=O)c2c(N)ncn(-c3c(C)cc(COC)cc3C)c2=O)c1 [Example 176]", "Measurement Target": "GSK3B (Homo sapiens)", "IC50 [nM]": 272}
{"Compound": "CN[C@@H](COC)c1cncc(NC(=O)c2c(N)ncn(-c3c(Cl)cc(OC)cc3Cl)c2=O)c1 (single isomer, unassigned) [Example 80]", "Measurement Target": "GSK3B (Homo sapiens)", "IC50 [nM]": 270}

====

biological target: GSK3B (Homo sapiens, UniProt P49841); assay: NanoBRET cellular target engagement assay, Nanoluc-GSK3B in HEK293 cells; type: cell-based; set-up: expressed in transfected cells; settings: NanoBRET GSK3β IC50, HEK293 cells, tracer K-8, 2 hours, 37° C
Sequence (P49841 whole entry, the tested form may be a part): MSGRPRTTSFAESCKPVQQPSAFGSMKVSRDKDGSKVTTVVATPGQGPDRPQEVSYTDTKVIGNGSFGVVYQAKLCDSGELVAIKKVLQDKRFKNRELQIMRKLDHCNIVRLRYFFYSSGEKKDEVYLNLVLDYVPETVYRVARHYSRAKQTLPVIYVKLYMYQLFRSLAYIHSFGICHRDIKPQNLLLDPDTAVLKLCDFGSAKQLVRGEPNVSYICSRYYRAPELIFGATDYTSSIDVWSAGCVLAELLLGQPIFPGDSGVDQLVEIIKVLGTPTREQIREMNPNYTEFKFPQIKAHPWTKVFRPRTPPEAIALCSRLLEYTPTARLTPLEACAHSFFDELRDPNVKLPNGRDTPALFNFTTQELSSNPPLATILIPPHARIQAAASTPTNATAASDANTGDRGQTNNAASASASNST
Where a name gives a salt, the structure may show the parent alone.
This section presents compounds with their documented IC50 values.

{"Compound": "COc1c(CN)cccc1NC(=O)c1c(N)ncn(-c2c(Cl)cccc2Cl)c1=O [Example 221, trifluoroacetate]", "Unit Of Measurement": "µM", "IC50": 0.235}
{"Compound": "C#CCC(N)c1cncc(NC(=O)c2c(N)ncn(-c3c(Cl)cc(OCC)cc3Cl)c2=O)c1 (single isomer, unassigned) [Example 150]", "Unit Of Measurement": "µM", "IC50": 0.0495}
{"Compound": "CNC(COC)c1cncc(NC(=O)c2c(N)ncn(-c3c(Cl)cc(C(F)(F)F)cc3Cl)c2=O)c1 (single isomer, unassigned) [Example 122]", "Unit Of Measurement": "µM", "IC50": 0.314}
{"Compound": "CCOCc1cc(C)c(-n2cnc(N)c(C(=O)Nc3cncc(C4CCCCCN4)c3)c2=O)c(C)c1 (single isomer, unassigned)", "Unit Of Measurement": "µM", "IC50": 0.181}
{"Compound": "COCc1cc(C)c(-n2cnc(N)c(C(=O)Nc3cnnc(C(N)=O)c3)c2=O)c(C)c1", "Unit Of Measurement": "µM", "IC50": 15.8}
{"Compound": "COc1cc(Cl)c(-n2cnc(N)c(C(=O)Nc3cncc([C@@H]4CCN4)c3)c2=O)c(Cl)c1 (single isomer, unassigned)", "Unit Of Measurement": "µM", "IC50": 0.992}
{"Compound": "CCOc1cc(C)c(-n2cnc(N)c(C(=O)Nc3cccc([C@@H](C)NC)c3)c2=O)c(Cl)c1 (atropisomer, axis not shown)", "Unit Of Measurement": "µM", "IC50": 0.353}
{"Compound": "CCOc1cc(Cl)c(-n2cnc(N)c(C(=O)Nc3cncc(C4COCCCN4)c3)c2=O)c(Cl)c1 (single isomer, unassigned)", "Unit Of Measurement": "µM", "IC50": 0.264}
{"Compound": "Nc1ncn(-c2c(Cl)cc(OC(F)(F)F)cc2Cl)c(=O)c1C(=O)Nc1cncc([C@@H]2CCCN2)c1", "Unit Of Measurement": "µM", "IC50": 0.567}
{"Compound": "COc1cc(Cl)c(-n2cnc(N)c(C(=O)Nc3cncc(C4(N)CCC4)c3)c2=O)c(Cl)c1", "Unit Of Measurement": "µM", "IC50": 0.179}
{"Compound": "COCc1cc(Cl)c(-n2cnc(N)c(C(=O)Nc3cncc(CNCCO)c3)c2=O)c(Cl)c1", "Unit Of Measurement": "µM", "IC50": 0.234}
{"Compound": "COc1cc(Cl)c(-n2cnc(N)c(C(=O)Nc3cncc([C@@H]4C[C@@H](C)N4)c3)c2=O)c(Cl)c1 (single isomer, unassigned)", "Unit Of Measurement": "µM", "IC50": 0.64}
{"Compound": "CCOc1cc(C)c(-n2cnc(N)c(C(=O)Nc3cncc(C(C)N)c3)c2=O)c(C)c1 (single isomer, unassigned)", "Unit Of Measurement": "µM", "IC50": 0.521}

====

target: GSK3B (Homo sapiens, UniProt P49841); assay: In vitro enzymatic activity assay, GSK3β; assay type: biochemical; design: Full length human GSK3α or GSK3B expressed as N-terminal GST fusion proteins; GST (N); purchased Carna Biosciences (Japan); host or cells: baculovirus host; conditions: 1.0 mM ATP, 1.0 μM peptide substrate, 120 min, 25° C, read-out: Enzyme GSK3β (IC50)
Note to self: IC50 under 500 nM means Yes, ties and anything higher get No.

{"Compound": "CNC(C)c1cncc(NC(=O)c2c(N)ncn(-c3c(Cl)cc(C#N)cc3Cl)c2=O)c1 (single isomer, unassigned)", "Cat": "No"}
{"Compound": "C#CCC(N)c1cncc(NC(=O)c2c(N)ncn(-c3c(Cl)cc(OCC)cc3Cl)c2=O)c1 (single isomer, unassigned) [Example 150]", "Cat": "Yes"}
{"Compound": "COc1cc(Cl)c(-n2cnc(N)c(C(=O)Nc3cncc([C@@H](C)N)c3)c2=O)c(Cl)c1 (single isomer, unassigned)", "Cat": "Yes"}
{"Compound": "COCc1cc(Cl)c(-n2cnc(N)c(C(=O)Nc3cncc(C(C)(C)N)c3)c2=O)c(Cl)c1", "Cat": "Yes"}
{"Compound": "COc1cc(Cl)c(-n2cnc(N)c(C(=O)Nc3cncc(CNC(C)C)c3)c2=O)c(Cl)c1", "Cat": "No"}
{"Compound": "CCOc1cc(C)c(-n2cnc(N)c(C(=O)Nc3cccc([C@@H](C)NC)c3)c2=O)c(Cl)c1 (atropisomer, axis not shown)", "Cat": "Yes"}
